Values from patent US20060110451A1

test: Ascending multiple dose pharmacokinetics of enteric coated capsules in healthy subjects; format: in vivo, human; details: human, plasma, po, 100 mg, healthy subjects, multiple oral doses (q12 h) 100 mg, day 14; read-out: AUCss (AUC0-12) (Mean)
Measured Quantity: AUC(0-t)

query: Which AUC(0-t) is listed for Cl.c1cc2c3c(c1)[C@H]1CCC[C@H]1CN3CCNC2 [Compound A.HCl] ?
result: ~62.8 ng·h/mL

---

test: Ascending multiple dose pharmacokinetics of enteric coated capsules in healthy subjects; type: in vivo, human; details: human, plasma, po, 75 mg, healthy subjects, single oral dose 75 mg, day 1; read-out: Cmax (Geom. Mean)
Measured Quantity: Cmax (ng/mL)
Please respond with the number in ng/mL and leave the unit unwritten.

query: Which Cmax is listed for Cl.c1cc2c3c(c1)[C@H]1CCC[C@H]1CN3CCNC2 [Compound A.HCl] ?
result: 1.56
